target_entity: TYK2 (Homo sapiens)
Construct: endogenous in cells; mixed lysate 1:2
Sequence (P29597 whole entry): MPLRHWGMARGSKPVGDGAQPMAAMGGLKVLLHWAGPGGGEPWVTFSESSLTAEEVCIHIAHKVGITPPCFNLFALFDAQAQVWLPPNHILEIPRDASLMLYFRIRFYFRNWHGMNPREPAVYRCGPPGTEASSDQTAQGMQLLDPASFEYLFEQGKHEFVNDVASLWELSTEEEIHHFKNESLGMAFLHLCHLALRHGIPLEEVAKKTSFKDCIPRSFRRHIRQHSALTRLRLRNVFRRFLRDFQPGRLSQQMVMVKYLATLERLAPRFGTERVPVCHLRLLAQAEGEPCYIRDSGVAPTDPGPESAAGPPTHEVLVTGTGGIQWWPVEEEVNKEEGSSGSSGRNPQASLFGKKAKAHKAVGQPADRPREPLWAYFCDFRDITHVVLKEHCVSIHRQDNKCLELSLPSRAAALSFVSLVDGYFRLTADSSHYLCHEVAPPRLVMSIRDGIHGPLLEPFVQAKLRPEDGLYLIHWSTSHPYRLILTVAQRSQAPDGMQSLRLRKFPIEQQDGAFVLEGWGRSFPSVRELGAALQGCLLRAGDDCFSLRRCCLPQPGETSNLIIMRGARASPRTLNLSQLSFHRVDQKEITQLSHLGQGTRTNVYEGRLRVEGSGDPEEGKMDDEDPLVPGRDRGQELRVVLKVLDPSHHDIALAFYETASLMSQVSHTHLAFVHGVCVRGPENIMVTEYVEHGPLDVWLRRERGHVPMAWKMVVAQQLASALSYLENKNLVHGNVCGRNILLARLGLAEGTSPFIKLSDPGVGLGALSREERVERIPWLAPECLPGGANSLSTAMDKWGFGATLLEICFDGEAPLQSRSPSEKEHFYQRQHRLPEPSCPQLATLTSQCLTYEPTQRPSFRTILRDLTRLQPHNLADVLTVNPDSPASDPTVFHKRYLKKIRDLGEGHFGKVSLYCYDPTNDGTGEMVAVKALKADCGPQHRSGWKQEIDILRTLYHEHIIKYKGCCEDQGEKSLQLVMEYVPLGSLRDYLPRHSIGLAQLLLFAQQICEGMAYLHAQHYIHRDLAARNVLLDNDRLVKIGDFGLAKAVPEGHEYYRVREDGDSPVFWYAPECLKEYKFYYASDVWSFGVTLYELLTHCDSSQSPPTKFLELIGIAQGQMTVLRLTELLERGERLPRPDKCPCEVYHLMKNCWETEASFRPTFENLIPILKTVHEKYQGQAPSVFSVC
test_summary: Kinobeads assay with immunodetection, TYK2
condition_description: Kinobeads assay, mixed Molt4/Ramos lysate; read-out: Inhibition values (IC50) Tyk2
pIC50: −log10 of the molar value. Where a name gives a salt, the structure may show the parent alone.
property: pIC50

INSERT INTO measurements (molecule, property, reported_result) VALUES
  ('C=CC(=O)N1CC[C@@H](CNc2nc(Nc3cnn(CCO)c3)ncc2Cl)C1 [Example 29]', 'pIC50', '5.00 to 6.00'),
  ('Cn1cc(Nc2ncc(Cl)c(NC[C@@H]3C[C@H](F)CN3CCS(C)(=O)=O)n2)cn1 [Example 91]', 'pIC50', '> 7.00'),
  ('Cn1cc(Nc2ncc(Cl)c(NC[C@H]3CCCN3CCS(C)(=O)=O)n2)cn1 [Example 50]', 'pIC50', '> 7.00'),
  ('CC(=O)N1CC[C@@H](CNc2nc(Nc3cnn(CCO)c3)ncc2Cl)C1 [Example 27]', 'pIC50', '6.00 to 7.00'),
  ('C=CS(=O)(=O)N1CCC[C@H]1CNc1nc(Nc2cnn(CCO)c2)ncc1Cl [Example 15]', 'pIC50', '> 7.00'),
  ('Cn1cc(Nc2ncc(Cl)c(NC[C@@H]3CCCCN3S(C)(=O)=O)n2)cn1 [Example 36]', 'pIC50', '6.00 to 7.00'),
  ('C=CC(=O)N1CCC[C@H]1CNc1nc(Nc2cnn(C)c2)ncc1Cl [Example 10]', 'pIC50', '5.00 to 6.00'),
  ('Cn1cc(Nc2ncc(Cl)c(NC[C@H]3CCCN3CCO)n2)cn1 [Example 48]', 'pIC50', '6.00 to 7.00'),
  ('Cn1cc(Nc2ncc(Cl)c(NC[C@H]3CCCN3CCC(F)(F)F)n2)cn1 [Example 80]', 'pIC50', '> 7.00'),
  ('Cn1cc(Nc2ncc(Cl)c(NC[C@H]3CCCN3C(=O)NC3CC3)n2)cn1 [Example 89]', 'pIC50', '> 7.00'),
  ('CC(=O)N1CCCC[C@@H]1CNc1nc(Nc2cnn(C)c2)ncc1Cl [Example 39]', 'pIC50', '> 7.00'),
  ('Cc1cnc(Nc2cnn(C)c2)nc1NC[C@H]1CCCN1CCS(C)(=O)=O [Example 107]', 'pIC50', '> 7.00'),
  ('CC(=O)N1CC[C@H](CNc2nc(Nc3cnn(CCO)c3)ncc2Cl)C1 [Example 21]', 'pIC50', '> 7.00'),
  ('Cc1cnc(Nc2cnn(C)c2)nc1NC[C@@H]1CCCN1 [Example 73, Hydrochloride]', 'pIC50', '5.00 to 6.00'),
  ('Cn1cc(Nc2ncc(Cl)c(NC[C@@H]3CCCN(C(=O)CCC#N)C3)n2)cn1 [Example 136]', 'pIC50', '6.00 to 7.00'),
  ('Cn1cc(Nc2ncc(Cl)c(NC[C@@H]3CCN(S(C)(=O)=O)C3)n2)cn1 [Example 30]', 'pIC50', '6.00 to 7.00'),
  ('Cn1cc(Nc2ncc(Cl)c(NCC3CN(S(C)(=O)=O)C3)n2)cn1 [Example 18]', 'pIC50', '< 5.00'),
  ('CC(=O)N1CCC[C@H]1CNc1nc(Nc2cnn(CCO)c2)ncc1Cl [Example 9]', 'pIC50', '6.00 to 7.00'),
  ('Cn1cc(Nc2ncc(F)c(NC[C@H]3CCCN3C(=O)CCC#N)n2)cn1 [Example 114]', 'pIC50', '> 7.00'),
  ('Cc1cnc(Nc2cnn(CC(F)F)c2)nc1NC[C@H]1CCN(C(=O)CCC#N)C1 [Example 130]', 'pIC50', '> 7.00'),
  ('Cc1cnc(Nc2cnn(CC(F)F)c2)nc1NC[C@H]1CCCN1CCC#N [Example 117]', 'pIC50', '> 7.00'),
  ('C=CS(=O)(=O)N1CCCC[C@H]1CNc1nc(Nc2cnn(C)c2)ncc1Cl [Example 38]', 'pIC50', '6.00 to 7.00'),
  ('Cc1cnc(Nc2cnn(C)c2)nc1NC[C@H]1CCCN1S(C)(=O)=O [Example 76]', 'pIC50', '> 7.00'),
  ('C=CC(=O)N1CCC[C@@H]1CNc1nc(Nc2cnn(C)c2)ncc1Cl [Example 3]', 'pIC50', '6.00 to 7.00'),
  ('Cn1cc(Nc2ncc(Cl)c(NC[C@H]3CCCN3CCC#N)n2)cn1 [Example 49]', 'pIC50', '> 7.00'),
  ('Cn1cc(Nc2ncc(Cl)c(NC[C@H]3CCCN3C(=O)CC#N)n2)cn1 [Example 52]', 'pIC50', '> 7.00'),
  ('Cn1cc(Nc2ncc(Cl)c(NC[C@H]3CCCN3C3CCS(=O)(=O)C3)n2)cn1 (some centres unmarked) [Example 115]', 'pIC50', '> 7.00'),
  ('CS(=O)(=O)N1CC[C@H](CNc2nc(Nc3cnn(CCO)c3)ncc2Cl)C1 [Example 85]', 'pIC50', '> 7.00'),
  ('Cn1cc(Nc2ncc(Cl)c(NC[C@H]3CCN(CCC#N)C3)n2)cn1 [Example 57]', 'pIC50', '6.00 to 7.00'),
  ('Cn1cc(Nc2nccc(NC[C@H]3CCCN3C(=O)CC#N)n2)cn1 [Example 95]', 'pIC50', '> 7.00'),
  ('CC(=O)N1CC(CNc2nc(Nc3cnn(CCO)c3)ncc2Cl)C1 [Example 17]', 'pIC50', '5.00 to 6.00'),
  ('CC(C)NC(=O)Cn1cc(Nc2nccc(NC[C@H]3CCCN3C(=O)CC#N)n2)cn1 [Example 96]', 'pIC50', '> 7.00'),
  ('C=CC(=O)N1CC[C@H](CNc2nc(Nc3cnn(CCO)c3)ncc2Cl)C1 [Example 23]', 'pIC50', '> 7.00'),
  ('CNC(=O)Cn1cc(Nc2ncc(Cl)c(NC[C@H]3CCCN3S(C)(=O)=O)n2)cn1 [Example 67]', 'pIC50', '> 7.00'),
  ('Cn1cc(Nc2ncc(Cl)c(NCC3COCCN3CCS(C)(=O)=O)n2)cn1 (centres unmarked) [Example 87]', 'pIC50', '6.00 to 7.00');
